Provenance of the data: patent US20150140169

Target: T1, alpha-s1 casein from Bos taurus
T1 chain: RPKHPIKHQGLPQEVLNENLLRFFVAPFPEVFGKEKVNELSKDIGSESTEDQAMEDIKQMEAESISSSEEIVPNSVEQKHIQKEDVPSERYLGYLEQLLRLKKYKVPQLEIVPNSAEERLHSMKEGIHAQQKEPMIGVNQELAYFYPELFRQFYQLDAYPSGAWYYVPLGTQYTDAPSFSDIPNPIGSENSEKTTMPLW
Reported property: αs1 CN, 24 hours, 11° C.
# include the unit after the value

// query αs1 CN, 24 hours, 11° C. lookup needed for bovine chymosin B variant #6 (K221M) (protein) GEVASVPLTNYLDSQYFGKIYLGTPPQEFTVLFDTGSSDFWVPSIYCKSNACKNHQRFDPRKSSTFQNLGKPLSIHYGTGSMQGILGYDTVTVSNIVDIQQTVGLSTQEPGDVFTYAEFDGILGMAYPSLASEYSIPVFDNMMNRHLVAQDLFSVYMDRNGQESMLTLGAIDPSYYTGSLHWVPVTVQQYWQFTVDSVTISGVVVACEGGCQAILDTGTSMLVGPSSDILNIQQAIGATQNQYGEFDIDCDNLSYMPTVVFEINGKMYPLTPSAYTSQDQGFCTSGFQSENHSQKWILGDVFIREYYSVFDRANNLVGLAKAI , thanks.
// result 5.1e+06 Volume
